- target: BCDIN3D (Homo sapiens, UniProt Q7Z5W3)
- Sequence (Q7Z5W3 whole entry): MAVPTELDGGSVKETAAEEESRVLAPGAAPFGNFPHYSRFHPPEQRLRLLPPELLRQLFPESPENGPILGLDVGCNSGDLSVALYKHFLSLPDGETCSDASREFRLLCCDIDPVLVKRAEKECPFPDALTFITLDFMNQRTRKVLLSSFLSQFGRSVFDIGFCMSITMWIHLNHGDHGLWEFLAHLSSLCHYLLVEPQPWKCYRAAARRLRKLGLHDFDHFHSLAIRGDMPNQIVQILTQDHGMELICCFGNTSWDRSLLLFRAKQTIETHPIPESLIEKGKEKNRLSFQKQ
- assay-comment: BCDIN3D InCellPulse thermal stability assay in transfected A549 cells
- Format: cell-based
- condition-info: transiently transfected A549 cells, heat shock 58° C. 15 min
pIC50: −log10 of the molar value.
test-readout: pIC50

The following compounds have reported results that may help.
INSERT INTO measurements (compound, target, experimental_result) VALUES
  ('Cn1ncc2c(NCC3CC3(F)F)nc(NC[C@H](N)c3ccccc3)nc21 (stereo partly shown)', 'BCDIN3D (Homo sapiens, UniProt Q7Z5W3)', 6.42),
  ('CC(C)Nc1nc(NCC(N)c2ccccc2)nc2c1cnn2C (stereo not shown)', 'BCDIN3D (Homo sapiens, UniProt Q7Z5W3)', 5.95),
  ('Cc1ccc(CNc2nc(NCC(N)c3ccccc3)nc3c2cnn3C)cc1Cl (stereo not shown)', 'BCDIN3D (Homo sapiens, UniProt Q7Z5W3)', 6.78);

1 = Cn1ncc2c(NC(C)(C)C)nc(NCC(N)c3ccccc3Cl)nc21 (stereo not shown)
2 = C[C@H](Nc1nc(NC[C@H](N)c2ccccc2)nc2c1cnn2C)C(F)(F)F [Compound 4.76]
3 = Cn1ncc2c(NC3CCC(F)(F)CC3)nc(NCC(N)c3ccccc3)nc21 (stereo not shown)
4 = Cn1ncc2c(NCC3CC3)nc(NCC(N)c3ccccc3)nc21 (stereo not shown)
Request: // smallest pIC50 at index 0, largest at the end Please reply with the labels ordered as requested. Many thanks.
Result: 4, 3, 1, 2
(4: 5.14, 3: 5.49, 1: 6.34, 2: 6.63)

I = Cn1ncc2c(NC3CC4(COC4)C3)nc(NC[C@H](N)c3ccccc3)nc21
II = Cn1ncc2c(Nc3ccc(F)c(Cl)c3)nc(NCC3(N)CC3)nc21
III = Cn1ncc2c(Nc3cc(F)cc(Cl)c3)nc(NCC3(N)CC3)nc21
IV = Cn1ncc2c(N3CCCC3)nc(NCC(N)c3ccccc3)nc21 (stereo not shown)
V = [2H]C([2H])([2H])n1ncc2c(Nc3ccc(C(F)(F)F)cc3)nc(NCC(N)c3ccccc3)nc21 (stereo not shown)
Request: Arrange the 5 compounds from largest to smallest pIC50. Please reply with the labels ordered as requested. Many thanks.
Result: V, I, III, II, IV
(V: 7.22, I: 6.34, III: 6.02, II: 5.74, IV: 5.13)

A = Cn1ncc2c(NC34CC(F)(C3)C4)nc(NCC(N)c3ccccc3)nc21 (stereo not shown)
B = Cn1ncc2c(NC3CCC(C(F)(F)F)CC3)nc(NC[C@H](N)c3ccccc3)nc21 (stereo partly shown)
Request: A or B : whose pIC50 is greater? Lab note: record the label of whichever item you select.
Result: A
(A: 6.21, B: 5.64)

1 = Cn1ncc2c(NCC(C)(C)F)nc(NC[C@H](N)c3ccccc3)nc21
2 = Cc1nn(C)c2nc(NC[C@H](N)c3ccccc3)nc(NC(C)(C)C)c12
Request: 1 or 2 : whose pIC50 is greater? Lab note: record the label of whichever item you select.
Result: 1

P = Cn1ncc2c(Nc3ccc(C(F)(F)F)cc3)nc(NCC(N)c3ccccn3)nc21 (stereo not shown)
Q = Cn1ncc2c(Nc3ccc(C(F)(F)F)cc3)nc(NCC3COCCN3)nc21 (stereo not shown)
R = Cn1ncc2c(Nc3cc(F)ccc3F)nc(NCC3(N)CC3)nc21
S = Cn1ncc2c(NC3CC3(C)C)nc(NC[C@H](N)c3ccccc3)nc21 (stereo partly shown)
Request: // smallest pIC50 at index 0, largest at the end Please reply with the labels ordered as requested. Many thanks.
Result: Q, R, S, P

A = Cn1ncc2c(NC3CC4(CC(O)C4)C3)nc(NC[C@H](N)c3ccccc3)nc21 (stereo partly shown)
B = Cc1nn(C)c2nc(NCC3(N)CC3)nc(Nc3ccc(C(F)(F)F)cc3)c12
Request: Consider entries A and B . Which has the numerically lower pIC50? Lab note: record the label of whichever item you select.
Result: B

P = [2H]C([2H])([2H])n1ncc2c(Nc3ccc(C(F)(F)F)nc3)nc(NCC(C)(N)c3ccccc3)nc21 (stereo not shown)
Q = Cn1ncc2c(Nc3ccc(OC(F)(F)F)cc3)nc(NCC(C)(N)c3ccccc3)nc21 (stereo not shown)
R = Cn1ncc2c(Nc3ccc(F)cc3Cl)nc(NCC3(N)CC3)nc21
S = Cn1ncc2c(NC3CC3)nc(NCC(N)c3ccccc3)nc21 (stereo not shown)
T = Cn1ncc2c(NCC3CC3(C)C)nc(NC[C@H](N)c3ccccc3)nc21 (stereo partly shown)
Request: Arrange the 5 compounds from largest to smallest pIC50. Please reply with the labels ordered as requested. Many thanks.
Result: T, Q, P, S, R
(T: 6.95, Q: 6.73, P: 6.21, S: 5.38, R: 5.02)

I = Cn1ncc2c(Nc3ccc(C(F)(F)F)cc3)nc(NCC3(N)CCCC3)nc21
II = Cn1ncc2c(NC(C)(C)C)nc(NCC(N)C3CCCCC3)nc21 (stereo not shown)
Request: Consider entries I and II . Which has the numerically lower pIC50? Lab note: record the label of whichever item you select.
Result: I

---

- target: UniProt:Q7Z5W3
- assay-comment: BCDIN3D IC50 RFMS (RapidFire) assay with mini-helix
- Assay type: biochemical
- condition-info: mini-helix substrate 0.2 μM, SAM 6 μM, 25 nM enzyme
test-readout: IC50 (nM)

The following compounds have reported results that may help.
INSERT INTO results (compound, test_readout, unit_spec, experimental_result) VALUES
  ('Cn1ncc2c(Nc3ccc(Cl)cc3)nc(NC[C@@H](N)c3ccccc3)nc21', 'IC50', 'nM', 7390),
  ('COCC(N)CNc1nc(NCc2ccc(C)c(Cl)c2)c2cnn(C)c2n1 (stereo not drawn)', 'IC50', 'nM', 4310),
  ('CNc1nc(NCC(N)c2cccc(Br)c2)nc2c1cnn2C (stereo not drawn)', 'IC50', 'nM', 470),
  ('CNc1nc(NCC(N)c2ccccc2)nc2c1cnn2C (stereo not drawn)', 'IC50', 'nM', 554),
  ('Cn1ncc2c(NC3(C(C)(C)C)CC3)nc(NC[C@H](N)c3ccccc3)nc21', 'IC50', 'nM', 2300),
  ('CC1CC(Nc2nc(NC[C@H](N)c3ccccc3)nc3c2cnn3C)C1 (stereo partly drawn)', 'IC50', 'nM', 50.7),
  ('Cn1ncc2c(Nc3ccc(C(F)(F)F)cc3)nc(NCC3(N)CC3)nc21', 'IC50', 'nM', 56.5),
  ('Cn1ncc2c(NC(C)(C)C3CCOCC3)nc(NC[C@H](N)c3ccccc3)nc21', 'IC50', 'nM', 2150),
  ('Cn1ncc2c(NC3CC3(C)C)nc(NC[C@H](N)c3ccccc3)nc21 (stereo partly drawn)', 'IC50', 'nM', 252),
  ('COc1ccc(CNc2nc(NCC3(N)CC3)nc3c2cnn3C)c(OC)c1', 'IC50', 'nM', 1260);

A = Cn1ncc2c(Nc3ccc(Cl)cc3F)nc(NCC3(N)CC3)nc21
B = Cn1ncc2c(NC3CCC3)nc(NC[C@H](N)c3ccccc3)nc21
Request: Consider entries A and B . Which has the numerically lower IC50? Lab note: record the label of whichever item you select.
Result: B
(B: 75.5 nM, A: 446 nM)

---

- target: BCDIN3D (Homo sapiens, UniProt Q7Z5W3)
- assay-comment: BCDIN3D InCellPulse thermal stability assay in transfected A549 cells
- Format: cell-based
- condition-info: transiently transfected A549 cells, heat shock 58° C. 15 min
pIC50: −log10 of the molar value.
test-readout: pIC50

INSERT INTO measurements (molecule, test_readout, experimental_result) VALUES
  ('COc1cc(Nc2nc(NCC3(N)CC3)nc3c2cnn3C)ccc1Cl', 'pIC50', 5.79),
  ('CC1CC1CNc1nc(NC[C@H](N)c2ccccc2)nc2c1cnn2C (stereo partly shown)', 'pIC50', 6.74),
  ('Cn1ncc2c(NC3CCCC3)nc(NC[C@H](N)c3ccccc3)nc21', 'pIC50', 6.83),
  ('Cn1ncc2c(Nc3cnc(C(F)(F)F)cn3)nc(NCC3(N)CC3)nc21', 'pIC50', 5.08),
  ('Cn1ncc2c(NCC3CCC3(F)F)nc(NC[C@H](N)c3ccccc3)nc21 (stereo partly shown)', 'pIC50', 6.36);

P = Cn1ncc2c(NC3(C)CCCC3)nc(NC[C@H](N)c3ccccc3)nc21
Q = Cn1ncc2c(Nc3cccc(OC(F)F)c3)nc(NCC3(N)CC3)nc21
R = Cc1ccc(CNc2nc(NCC(N)c3cccnc3)nc3c2cnn3C)cc1Cl (stereo not shown)
S = Cn1ncc2c(NCC3CCC3F)nc(NC[C@H](N)c3ccccc3)nc21 (stereo partly shown)
Request: Arrange the 4 molecules from largest to smallest pIC50. Please reply with the labels ordered as requested. Many thanks.
Result: P, S, R, Q

a = COc1ccc(CNc2nc(NCC3(N)CC3)nc3c2cnn3C)c(OC)c1
b = CCn1ncc2c(NC(C)C)nc(NCC(N)c3ccccc3)nc21 (stereo not shown)
Request: Consider entries a and b . Which has the numerically lower pIC50? Lab note: record the label of whichever item you select.
Result: b

1 = Cn1ncc2c(Nc3ccc(C(F)(F)F)nc3)nc(NCC3(N)CCCC3)nc21
2 = Cn1ncc2c(Nc3ccc(Cl)c(Cl)c3)nc(NCC(C)(N)c3ccccc3)nc21 (stereo not shown)
Request: 1 or 2 : whose pIC50 is greater? Lab note: record the label of whichever item you select.
Result: 2

I = Cn1ncc2c(NCC3(F)CCC3)nc(NC[C@H](N)c3ccccc3)nc21
II = Cn1ncc2c(Nc3ccc(F)c(F)c3)nc(NCC3(N)CC3)nc21
Request: Consider entries I and II . Which has the numerically lower pIC50? Lab note: record the label of whichever item you select.
Result: II

a = Cn1ncc2c(Nc3ccc(OC(F)F)nc3)nc(NCC(N)c3ccccc3)nc21 (stereo not shown)
b = CC(C)Oc1ccc(Nc2nc(NC[C@H](N)c3ccccc3)nc3c2cnn3C)cc1
c = Cn1ncc2c(Nc3ccc(C(F)(F)F)cc3)nc(NCC(N)c3ccccc3)nc21 (stereo not shown)
Request: // smallest pIC50 at index 0, largest at the end Please reply with the labels ordered as requested. Many thanks.
Result: a, c, b

I = CNc1nc(NCC(N)c2cccc(Br)c2)nc2c1cnn2C (stereo not shown)
II = CC[C@@H](N)CNc1nc(NCc2ccc(C)c(Cl)c2)c2cnn(C)c2n1
III = CNc1nc(NCC(C)(N)c2ccccc2)nc2c1cnn2C (stereo not shown)
Request: // smallest pIC50 at index 0, largest at the end Please reply with the labels ordered as requested. Many thanks.
Result: III, I, II

a = Cn1ncc2c(NC(C)(C)C)nc(NCC(N)c3cccc(C#N)c3)nc21 (stereo not shown)
b = Cn1ncc2c(Nc3ccccc3)nc(NCC3(N)COC3)nc21
c = Cc1ccc(CNc2nc(NC[C@@H](C)N)nc3c2cnn3C)cc1Cl
Request: // smallest pIC50 at index 0, largest at the end Please reply with the labels ordered as requested. Many thanks.
Result: b, c, a
(b: 4.22, c: 5.84, a: 6.89)

A = Cn1ncc2c(NCc3ccc(F)cc3F)nc(NCC(N)c3ccccc3)nc21 (stereo not shown)
B = Cn1ncc2c(NCc3ccc(Br)cc3)nc(NCC3(N)CC3)nc21
C = Cn1ncc2c(N[C@H]3C[C@H](F)C3)nc(NC[C@H](N)c3ccccc3)nc21
Request: // smallest pIC50 at index 0, largest at the end Please reply with the labels ordered as requested. Many thanks.
Result: B, A, C
